- test-target: MAGI2_5, Q86UL8
- Sequence (Q86UL8 915-1017): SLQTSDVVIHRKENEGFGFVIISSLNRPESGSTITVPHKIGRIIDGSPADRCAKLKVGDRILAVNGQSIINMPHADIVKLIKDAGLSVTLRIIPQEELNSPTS
- procedure-summary: holdup assay
- Set-up: key: below the threshold = too weak to quantify, mostly under pKd 3.1 to 4
- test-settings: plain residues with an end cap or a label only (N-terminal biotin on a linker: ahx)

| binder | pKd |
| --- | --- |
| SAPATLSSRA [PDLIM2, Q96JY6] | below the threshold |
| SKKNELFSNL [NHERF1, O14745] | below the threshold |
| AKPQPVDSWV [ARVCF, O00192] | below the threshold |
